Test: yeast display, Sf9 membrane polyspecificity reagent, FACS + sequencing; frameworks hold sequencing errors
Readout Name: polyreactivity (PSR sort gate)

QVQLVESGGGLVQAGGSLRLSCAASGSTFYYYAMGWYRQAPGKEREFVASISSRGTSTYYADSVKGRFTISRDNAKNTVYLQMNRLKPEDTAVYYCAARGWGPTRAYDYWGQGTQVTVSS ... high polyreactivity
QVQLVDSGGGLVQAGGSLRLSCAASGRIFIGYAMGWNRQAPWRERELVAAITSGGGTYYADSVKARFTISRDNAKNTVYLQMNSLKPEDTAVYFCAGAQRYPIKYYFWGQGTQVTVSS ... low polyreactivity
QVQLVESGGGLVQAGGSHRLSCAASGLTFYQYSMGWYRQAPGKERELVAAISKSAGSTYYADSVKGRFTISRDNAKNTVYLQMNSLKPEDTAVYYCAARVLRLRYDYWGQGTQVTVSS ... high polyreactivity
QVQLVESGGGLVQAGGSLRLSCAASGSILYSNMGWYRQAPGKERELVAAITYSGGRTYYADSVKGRFTISRDNAKNTVYLQMNSLKPEDTAVYYCAARLATYGASTYYYWGQGTQVTVSS ... high polyreactivity

Then this sequence:
Prompt: Value lookup for polyreactivity (PSR sort gate); key = QVQLVESGGGLVQAGGSLRLSCAASGIILSPYTMGWYRQAPGKERELVAGISRSGGTTYYADSVKGRFTISRDNAKNTVYLQMNSLKPEDTAVYYCAARKPGWGHEWWVEHYYYWGQGTQVTVSS
Response: low polyreactivity
